Tested on: endothelial tube formation in co-cultures of ECFCs and ADSCs treated with VEGF
Assay method text: cells
Format: cell-based, human
Recorded metric: IC50/EC50, VEGF_ADSC\ECFC Angio CD31 TubeArea (assay number 2)

{"Smiles data": "CN1CCN(CCCN2c3ccccc3Sc3ccc(C(F)(F)F)cc32)CC1.Cl.Cl", "Observed measurement": "> 10 µM"}
{"Smiles data": "CNS(=O)(=O)CCc1ccc2[nH]cc(C3CCN(C)CC3)c2c1.Cl", "Observed measurement": "> 10 µM"}
{"Smiles data": "O=c1[nH]sc2cc(Cl)ccc12", "Observed measurement": "> 10 µM"}
{"Smiles data": "COC(=O)Nc1nc2ccc(Sc3ccccc3)cc2[nH]1", "Observed measurement": "0.2067 µM"}
{"Smiles data": "Cc1cc(O)c2c(O)c3c(O)cccc3cc2c1", "Observed measurement": "> 10 µM"}

----------
// values below are reported Basal_Viability ATP RKO IC50/EC50
Test system: RKO
Assay method text: cells
Type: cell-based
Condition info: assay number 29
Recorded metric: Basal_Viability ATP RKO IC50/EC50 (µM)

{"Compound": "Cc1ccc2nc(N)[nH]c(=O)c2c1Sc1ccncc1.Cl.Cl", "Comparative sign": "=", "Observed measurement": 0.3429}
{"Compound": "CCOC(=O)Oc1ccc(CCNC(=O)[C@H](CCSC)NC(C)=O)cc1OC(=O)OCC", "Comparative sign": ">", "Observed measurement": 20}
{"Compound": "CCCCCCCCCCCCCC[N+](C)(C)C.[Br-]", "Comparative sign": "=", "Observed measurement": 0.1473}
{"Compound": "COC(=O)C1=C(C)NC(C)=C(C(=O)O[C@@H]2CCCN(Cc3ccccc3)C2)[C@@H]1c1cccc([N+](=O)[O-])c1.Cl", "Comparative sign": "=", "Observed measurement": 8.0546}
{"Compound": "CN(C)[C@@H](CCOc1cccc2ccccc12)c1ccccc1", "Comparative sign": "=", "Observed measurement": 8.1098}
{"Compound": "Nc1ncn([C@@H]2O[C@H](CO)[C@@H](O)[C@H]2O)c(=O)n1", "Comparative sign": "=", "Observed measurement": 7.4004}
{"Compound": "COCC(=O)O[C@]1(CCN(C)CCCc2nc3ccccc3[nH]2)CCc2cc(F)ccc2[C@@H]1C(C)C", "Comparative sign": "=", "Observed measurement": 6.7187}
{"Compound": "Cl.O=C1[C@H]2CCCC[C@H]2C(=O)N1CCCCN1CCN(c2nsc3ccccc23)CC1", "Comparative sign": "=", "Observed measurement": 0.5459}
{"Compound": "Clc1ccc(CCC(Cn2ccnc2)Sc2c(Cl)cccc2Cl)cc1 (stereo not shown)", "Comparative sign": "=", "Observed measurement": 2.3045}
{"Compound": "CC=CC1=C(C(=O)O)N2C(=O)[C@@H](NC(=O)[C@H](N)c3ccc(O)cc3)[C@H]2SC1", "Comparative sign": ">", "Observed measurement": 20}

----------
Tested on: HCT116 cells treated with a GSK3β inhibitor
Assay method text: cells
Assay type: cell-based
Condition info: Homo sapiens, HCT-116; HCT116 pretreated with GSK3b inhibitor; read-out: GSK3b inh pretreated_Viability ATP HCT116
Where a SMILES comes first, the peptide text is derived from it. [ ]: non-standard residue; d: D form. The star is where a group is joined. Sta = CC(C)C[C@H](N)[C@@H](O)CC(=O)O; Isovaleryl = CC(C)CC(=O)*
// values below are reported IC50
Recorded metric: IC50 (µM)

{"Compound": "O=C1C(I)=CC(=C(c2cc(I)c(O)c(I)c2)c2ccccc2C(=O)O)C=C1I", "Comparative sign": "=", "Observed measurement": 0.054}
{"Compound": "Clc1ccc(Nc2nnc(Cc3ccncc3)c3ccccc23)cc1 [vatalanib, reference compound]", "Comparative sign": "=", "Observed measurement": 10.5}
{"Compound": "CCCCCCCCCCCCCCCC[N+](C)(C)CCN(Cc1ccc(OC)cc1)c1ncccn1 [Tonzonium bromide]", "Comparative sign": "=", "Observed measurement": 5.31}
{"Compound": "OC[C@H]1O[C@@H](n2cnc3c(S)ncnc32)[C@H](O)[C@@H]1O", "Comparative sign": "=", "Observed measurement": 0.504}
{"Compound": "CC(=O)Oc1ccccc1C(=O)Nc1ncc([N+](=O)[O-])s1 [nitazoxanide]", "Comparative sign": "=", "Observed measurement": 2.46}
{"Compound": "COP(=S)(OC)Oc1ccc(Sc2ccc(OP(=S)(OC)OC)cc2)cc1", "Comparative sign": ">", "Observed measurement": 20}
{"Compound": "CC(C)CC(=O)N[C@H](C(=O)N[C@H](C(=O)N[C@@H](CC(C)C)[C@@H](O)CC(=O)N[C@@H](C)C(=O)N[C@@H](CC(C)C)[C@@H](O)CC(=O)O)C(C)C)C(C)C [Pepstatin] (Isovaleryl-VV[Sta]A[Sta]-OH)", "Comparative sign": "=", "Observed measurement": 17.7}
